Listing of recorded ECL signal by entry.
Target: T1, rHuman ErbB2/Fc Chimera, CF (R&D Systems Cat#1129-ER) (human, UniProt P04626 23-652)
T1 construct: Bought recombinant protein; also called human epidermal growth factor 2 receptor; Fc part of the bought chimera not given
Assay: ECL multispot (MSD) binding assay, antigen spotted on plate, Fab 0.04 uM;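 note: purified Fab incubated 1 h at 20 °C on antigen spots, detected via TAG-labelled antibody, ECL read against each well's blank, with signal-to-blank of at least 4 scored as binder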
Reply with the value as a number alone.

Guide cases for ECL signal, answers given:
- binder: "Fab VH5-51_IGHD5-18*01>3_IGHJ4*01 G100K/G104T (H:KT) & V3-4_IGLJ1*01 V91A (Fab, V domains shown, Fab; Expressed from Plasmid A (CH1, His6 and Flag tags) and Plasmid E (lambda CL); also called KT & V91A) VH: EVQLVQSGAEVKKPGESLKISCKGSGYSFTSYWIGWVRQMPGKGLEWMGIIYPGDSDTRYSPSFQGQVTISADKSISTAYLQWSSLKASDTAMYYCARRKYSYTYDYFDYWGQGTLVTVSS VL: QTVVTQEPSFSVSPGGTVTLTCGLSSGSVSTSYYPSWYQQTPGQAPRTLIYSTNTRSSGVPDRFSGSILGNKAALTITGAQADDESDYYCALYMGSGISYVFGTGTKVTVL"
  ECL signal: 1120
- binder: "Fab VH5-51_IGHD5-18*01>3_IGHJ4*01 G100K/G104T (H:KT) & V3-4_IGLJ1*01 I98A (Fab, V domains shown, Fab; Expressed from Plasmid A (CH1, His6 and Flag tags) and Plasmid E (lambda CL); also called KT & I98A) VH: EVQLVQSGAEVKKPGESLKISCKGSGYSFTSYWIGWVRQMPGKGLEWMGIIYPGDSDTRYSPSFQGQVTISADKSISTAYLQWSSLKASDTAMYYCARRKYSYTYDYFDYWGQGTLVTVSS VL: QTVVTQEPSFSVSPGGTVTLTCGLSSGSVSTSYYPSWYQQTPGQAPRTLIYSTNTRSSGVPDRFSGSILGNKAALTITGAQADDESDYYCVLYMGSGASYVFGTGTKVTVL"
  ECL signal: 1380
- binder: "Fab VH5-51_IGHD5-18*01>3_IGHJ4*01 G100K/G104T (H:KT) & V3-4_IGLJ1*01 M94A (Fab, V domains shown, Fab; Expressed from Plasmid A (CH1, His6 and Flag tags) and Plasmid E (lambda CL); also called KT & M94A) VH: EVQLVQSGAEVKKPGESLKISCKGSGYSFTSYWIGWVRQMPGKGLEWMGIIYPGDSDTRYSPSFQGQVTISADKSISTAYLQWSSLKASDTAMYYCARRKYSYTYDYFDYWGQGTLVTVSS VL: QTVVTQEPSFSVSPGGTVTLTCGLSSGSVSTSYYPSWYQQTPGQAPRTLIYSTNTRSSGVPDRFSGSILGNKAALTITGAQADDESDYYCVLYAGSGISYVFGTGTKVTVL"
  ECL signal: 1200

# lookup: ECL signal of Fab VH5-51_IGHD5-18*01>3_IGHJ4*01 G100K/G104T (H:KT) & V3-4_IGLJ1*01 S99A (Fab, V domains shown, Fab; Expressed from Plasmid A (CH1, His6 and Flag tags) and Plasmid E (lambda CL); also called KT & S99A) VH: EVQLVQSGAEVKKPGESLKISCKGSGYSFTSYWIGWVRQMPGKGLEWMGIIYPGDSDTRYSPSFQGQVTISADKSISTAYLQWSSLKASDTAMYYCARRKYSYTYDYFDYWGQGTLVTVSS VL: QTVVTQEPSFSVSPGGTVTLTCGLSSGSVSTSYYPSWYQQTPGQAPRTLIYSTNTRSSGVPDRFSGSILGNKAALTITGAQADDESDYYCVLYMGSGIAYVFGTGTKVTVL 1320

For Fab VH5-51_IGHD5-18*01>3_IGHJ4*01 G100K/G104T (H:KT) & V3-4_IGLJ1*01 S96A (Fab, V domains shown, Fab; Expressed from Plasmid A (CH1, His6 and Flag tags) and Plasmid E (lambda CL); also called KT & S96A) VH: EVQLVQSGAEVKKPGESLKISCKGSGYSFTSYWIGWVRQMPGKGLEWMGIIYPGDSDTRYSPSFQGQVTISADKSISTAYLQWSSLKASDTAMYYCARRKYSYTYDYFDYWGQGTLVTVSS VL: QTVVTQEPSFSVSPGGTVTLTCGLSSGSVSTSYYPSWYQQTPGQAPRTLIYSTNTRSSGVPDRFSGSILGNKAALTITGAQADDESDYYCVLYMGAGISYVFGTGTKVTVL then? 1280
